These measurements were taken from patent US20250388574A1.

target: hTREM2 (Homo sapiens, UniProt Q9NZC2); assay: Phospho-Syk AlphaScreen/AlphaLISA assay in TREM2 and DAP12 overexpressing HEK293 cells (Example A1); type: cell-based; design: expressed in transfected cells; settings: HEK293 cells
Sequence (Q9NZC2 19-230): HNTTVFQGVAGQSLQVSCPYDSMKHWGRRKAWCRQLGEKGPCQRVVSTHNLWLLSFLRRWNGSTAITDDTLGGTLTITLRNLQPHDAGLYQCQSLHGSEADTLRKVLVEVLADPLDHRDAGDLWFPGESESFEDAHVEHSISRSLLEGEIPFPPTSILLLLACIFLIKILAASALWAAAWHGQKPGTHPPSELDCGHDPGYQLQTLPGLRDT
Sequence (O43914 22-113 partner): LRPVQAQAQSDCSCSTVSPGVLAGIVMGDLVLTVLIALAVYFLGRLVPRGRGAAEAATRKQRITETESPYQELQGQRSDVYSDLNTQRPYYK
parameter-measured: Emax

# count of solved cases: 5
>>> df
                                   molecule                            test_target     observed_measurement
0  Cc1nc2cc(N3CCO[C@H](c4cnn(C)c4)C3)nc(-c3ccc(Cl)cc3)c2c(=O)n1C [Example 220]  hTREM2 (Homo sapiens, UniProt Q9NZC2)          ++++ (Emax>300)
1  Cc1nc2cc(N3CCO[C@@H](c4cnn(CC(F)(F)F)c4)C3)nc(-c3ccc(Cl)cc3F)c2c(=O)n1C  hTREM2 (Homo sapiens, UniProt Q9NZC2)  +++ (Emax>200 and ≤300)
2  CCn1c(C)nc2cc(N3CCO[C@@H](c4ccnc(C)c4)C3)nc(-c3ccc(Cl)cc3F)c2c1=O  hTREM2 (Homo sapiens, UniProt Q9NZC2)  +++ (Emax>200 and ≤300)
3  Cc1nc2cc(N3CCO[C@@H](c4cnn(C)c4)C3)nc(-c3ccc(Cl)cc3F)c2c(=O)n1C1CC1  hTREM2 (Homo sapiens, UniProt Q9NZC2)          ++++ (Emax>300)
4  Cc1nc2cc(N3CCCC(N(C)C)C3)nc(-c3ccc(Cl)cc3F)c2c(=O)n1C (stereo not shown)  hTREM2 (Homo sapiens, UniProt Q9NZC2)          ++++ (Emax>300)

In: Answer with the recorded Emax for the molecule listed here: Cc1nc2cc(N3CCC[C@H](N4CCCC4)C3)nc(-c3ccc(Cl)cc3F)c2c(=O)n1C
Out: +++ (Emax>200 and ≤300)

In: Hello, please tell me recorded Emax for this one: Cc1nc2cc(N3CCCC(N4CCC4)C3)nc(-c3ccc(Cl)cc3F)c2c(=O)n1C (stereo not shown)
Out: ++++ (Emax>300)
